Each recorded value in this set is attributed to paper PMC9482650.

Below, each entry is listed with its recorded pKd.
- experimental target: T1, NHERF3_1, Q5T2W1
- T1 sequence (Q5T2W1 4-100, limits assumed, looked up): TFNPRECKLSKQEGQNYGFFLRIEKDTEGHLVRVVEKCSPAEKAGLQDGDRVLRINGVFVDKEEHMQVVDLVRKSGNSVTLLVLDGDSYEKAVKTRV
- assay protocol: holdup assay
- Parameters: key: below the threshold = too weak to quantify, mostly under pKd 3.1 to 4
- test context: plain residues with an end cap or a label only (N-terminal biotin on a linker: ado-ado)
Please give the numeric answer without any surrounding text.

binder	measured
GFGEERESIL [KIDINS220, Q9ULH0]	5.06
FVHPILQSAV [PRKCA, P17252]	4.82
EEPEERHTEL [CES2, O00748]	4.72
QKNKDKEYYV [NRXN3_rs746444206, Q9Y4C0]	4.43

Field: next binder
Task item: Give the reported value of pKd for this record: TETASVCTKV [SLC23A1, Q9UHI7]
Reply: 4.54
